Test system: ACVR1B
condition: concentration: 1 μM,replicates: in singlicate; n = 1;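 note: KINOMEscan kinase panel screen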
value type: %Inh (%)
Respond with the bare value in %.

Before answering, review these 5 worked examples.
compound	unit text	quantitative readout
O=c1[nH]cc(-c2ccc(O)cc2)c2sc(-c3ccncc3)cc12	%	0
O=C(Nc1cccc(C(F)(F)F)c1)c1cccc(Oc2ccc3nccn3n2)c1	%	0
COc1cc2c(Nc3ccc(NC(=O)c4ccccc4)cc3)ncnc2cc1OCCCN1CCOCC1	%	0
Cl.c1ccc(Oc2ccc(Nc3ccnc4cc(-c5ccc(CN6CCNCC6)o5)ccc34)cc2)nc1	%	0
Nc1nccc(-c2ccc3c(N)n[nH]c3c2)n1	%	0

Ask | Which measured %Inh belongs to COc1cccc(CNC(=O)NC2CCN(c3ccnc(Nc4cc(OC)c(OC)c(OC)c4)n3)C2)c1 (stereo not shown) , tested on ACVR1B?
Reply | 0

Ask | Could you share what %Inh was measured for `Cc1ccn2nc(-c3ccc(F)cc3)c(-c3ccncc3)c2c1.Cl` , tested on ACVR1B?
Reply | 0

Ask | Request - read-out %Inh | tested on ACVR1B | compound COc1ccc(Nc2nccc(N3CCC(NC(=O)c4cccc(C#N)c4)C3)n2)cc1 (stereo not shown)
Reply | 4

----------
Tested on: CSF1R-autoinhibited
condition: concentration: 1 μM,replicates: in singlicate; n = 1
Listed next: entries and their corresponding %Inh.
Hi! Could you send only the number? It should be in %, unit omitted.

Use these answered entries as a reference point.
Cn1ccc2ncnc(Oc3ccc(NC(=O)Nc4cccc(C(F)(F)F)c4)c(F)c3)c21 0
Cc1ccc(CC(=O)N2CCc3cc(-c4cn(C)c5ncnc(N)c45)ccc32)cc1 21
Cn1ccc2ncnc(Oc3ccc(NC(=O)Nc4cc(C(C)(C)C)on4)c(Cl)c3)c21 43
COc1cc2nccc(Nc3ccc(Oc4ccccc4)cc3)c2cc1OC.Cl 26

Ask | Look at this molecule and give its reported %Inh. `Cc1cccc(-c2nc(Nc3ccncc3)c3sccc3n2)n1`
Reply | 42

Ask | May I ask what %Inh has been recorded for `C[C@@H](Oc1cc(-n2cnc3ccc(-c4ccncc4)cc32)sc1C(N)=O)c1ccccc1Cl` ?
Reply | 0

Ask | Which measured %Inh value corresponds to `Cn1cc(-c2cccc3c(N)c(C(N)=O)nnc23)cn1` ?
Reply | 0

Ask | Look at this molecule and give its reported %Inh. `CC(=O)c1c(-c2ccncc2)[nH]c(-c2ccncc2)c1C`
Reply | 19

Ask | Which %Inh is reported for this molecule? `CCN1CCN(CCCC(=O)Nc2n[nH]c3nc(-c4ccc(O)cc4)c(Br)cc23)CC1`
Reply | 0

Ask | Suppose we examine the molecule `NC(=O)Nc1sc(-c2ccc(F)cc2)cc1C(N)=O` ; what %Inh value has been reported?
Reply | 39

Ask | Data request, read-out %Inh, for `O=C(Nc1ccccc1)c1cccc(Oc2ccc3nccn3n2)c1`
Reply | 0

Ask | Item under review: `CS(=O)(=O)Nc1ccc(-c2ccnc3[nH]ccc23)cc1` . Reported %Inh?
Reply | 0

----------
Tested on: AURKC
condition: concentration: 1 μM,replicates: in singlicate; n = 1
Some compounds, each annotated with its measured %Inh.
Express it in %; write the number only.

For orientation, consider the following solved cases.
compound	%Inh, %
N#Cc1cccc(C(=O)NC2CCN(c3ccnc(Nc4ccc(F)cc4)n3)C2)c1 (stereo not shown)	33
CN(c1cccc(CNc2nc(Nc3ccc4c(c3)CC(=O)N4)ncc2C(F)(F)F)c1)S(C)(=O)=O	88
CN(c1ccc2c(c1)nc(NCc1ccc(F)cc1)n2C)c1ccnc(Nc2ccc(CS(C)(=O)=O)cc2)n1.Cl	67

Ask | API: value(readout= %Inh, system= AURKC, query= `CC(C)c1nc(-c2cccc(NS(=O)(=O)c3ccccc3)c2)c(-c2ccnc(Nc3ccc4c(c3)CN(C)CC4)n2)s1` )
Reply | 55

----------
Tested on: PIKFYVE
condition: concentration: 1 μM,replicates: in singlicate; n = 1
Parameter: %Inh. Scope: all listed entries.
# output: bare number, implied unit %

Answered examples (2):
molecule	quantitative readout
Cn1cc(-c2cccc3c(N)c(C(N)=O)nnc23)cn1	0
Cn1ccc2ncnc(Oc3ccc(NC(=O)Nc4cncc(C(F)(F)F)c4)c(Cl)c3)c21	0

Turning now to a further molecule:
Ask | For CCn1c(-c2nonc2N)nc2cncc(Br)c21 [SB-738004] , what is its reported %Inh?
Reply | 39

----------
Tested on: TXK
condition: concentration: 1 μM,replicates: in singlicate; n = 1
Reported %Inh values for a set of compounds
Dear colleague, please return just the value in %, with no unit written.

Use these answered entries as a reference point.
compound	value type	unit text	quantitative readout
O=C(Nc1ccccc1)c1cccc(Oc2ccc3nccn3n2)c1	%Inh	%	0
Cc1nnc(-c2ccc3occ(-c4ccc(S(C)=O)cc4)c3n2)o1 (stereo not shown)	%Inh	%	0
Cn1ccc2ncnc(Oc3ccc(NC(=O)Nc4cccc(C(F)(F)F)c4)c(Cl)c3)c21	%Inh	%	0
C[C@@H]1CNc2c(sc3ccc4nc(-c5ccncc5)ccc4c23)C(=O)N1	%Inh	%	0
NC(=O)c1ccc(-c2cc3ncnc(SCC(=O)O)c3s2)cc1	%Inh	%	0

Ask | Name the recorded %Inh for `Cn1ccc2ncnc(Oc3ccc(NC(=O)Nc4cncc(C(F)(F)F)c4)c(Cl)c3)c21` .
Reply | 0

Ask | // %Inh lookup, key: `O=c1[nH]cc(-c2ccc(O)cc2)c2sc(-c3ccncc3)cc12`
Reply | 5

Ask | Looking for the measured %Inh of `CS(=O)(=O)Nc1ccc(-c2ccnc3[nH]ccc23)cc1` , can you help?
Reply | 0

Ask | # input compound: `O=C1NCCc2[nH]c(-c3ccncc3)cc21` ; wanted: its %Inh
Reply | 2

----------
Test system: DDR1
condition: concentration: 1 μM,replicates: in singlicate; n = 1
Listed next: entries and their corresponding %Inh.
# unit: % | format: bare number

Some compounds with recorded %Inh:
compound	unit text	quantitative readout
COc1cccc(CNC(=O)NC2CCN(c3ccnc(Nc4cc(OC)c(OC)c(OC)c4)n3)C2)c1 (centres unmarked)	%	1
Cc1ccc(Nc2ccnc(Nc3ccc4c(c3)CS(=O)(=O)C4)n2)cc1O.Cl	%	86
O=C(Nc1n[nH]c2cc(-c3ccco3)ccc12)C1CC1	%	0

Ask | Short answer please: %Inh, DDR1, entry `COc1cccc(OC)c1C(=O)Nc1cccc(-c2nn3ccccc3c2-c2ccnc(Nc3cccc(F)c3)n2)c1`
Reply | 99.3

Ask | I'm curious: which %Inh was measured for `C[C@@H]1CNc2c(sc3ccc4nc(-c5ccc(O)cc5)ccc4c23)C(=O)N1` tested on DDR1?
Reply | 0

Ask | Recorded %Inh for `Cn1ccc2ncnc(Oc3ccc(NC(=O)Nc4ccnc(C(F)(F)F)c4)c(Cl)c3)c21` with DDR1, please?
Reply | 100

Ask | Param readout= %Inh; system= DDR1; entry= `O=C(NOCC1CC1)c1cc(Br)c(F)c(F)c1Nc1ccc(I)cc1Cl` ; returns value.
Reply | 0

Ask | Any idea what %Inh came out for `CC(C)S(=O)(=O)N1CCN(Cc2ccc3c(c2)nc(NC(=O)c2ccsc2)n3C[C@H](O)c2ccccc2)CC1` on DDR1?
Reply | 46

Ask | // lookup %Inh | system=DDR1 | key= `Cc1cccc(-c2nc(Nc3ccncc3)c3sccc3n2)n1`
Reply | 55

Ask | Short answer please: %Inh, DDR1, entry `Cn1ccc2ncnc(Oc3ccc(NC(=O)Nc4cnn(C(C)(C)C)c4)c(Cl)c3)c21`
Reply | 100

Ask | Any idea what %Inh came out for `O=C(Nc1cccc(C(F)(F)F)c1)c1cccc(Oc2ccc3nccn3n2)c1` on DDR1?
Reply | 97.1

Ask | Which %Inh is reported with DDR1 for this entry: `CC(=O)Nc1nc2cnc(Nc3cc(NC(=O)c4cccc(CC(C)(C)C#N)c4)ccc3C)nc2s1` ?
Reply | 100

Ask | Lab request: please report %Inh under test system DDR1 for `CSc1nccc(-c2c(-c3ccc(F)cc3)ncn2CCCN2CCOCC2)n1.Cl`
Reply | 0

Ask | Notebook: pull reported %Inh for DDR1, entry `O=C(Nc1ccc(Oc2ccc3nc(NC(=O)C4CC4)cn3n2)c(F)c1)c1cccn(-c2ccccc2)c1=O`
Reply | 99.1

----------
Tested on: LZK
Construct: gene MAP3K13
condition: concentration: 1 μM,replicates: in singlicate; n = 1
Quick reference: %Inh of the listed items.
Express it in %; write the number only.

molecule	unit text	%Inh
CNC(=O)c1ccccc1Nc1nc(Nc2cccc(CS(C)(=O)=O)c2)ncc1C.O=CO	%	97.3

Ask | Data request, read-out %Inh, for `C[C@@H](Oc1cc(-n2cnc3cc(-c4ccncc4)ccc32)sc1C(N)=O)c1ccccc1Cl`
Reply | 0

Ask | For the molecule shown here, `Cl.c1ccc(Oc2ccc(Nc3ccnc4cc(-c5ccc(CN6CCNCC6)o5)ccc34)cc2)nc1` , give the reported %Inh.
Reply | 7

Values compiled from paper PMC5540273.
